assayed.target: rat MCH-1 (Rattus norvegicus, UniProt P97639)
Sequence (P97639 whole entry): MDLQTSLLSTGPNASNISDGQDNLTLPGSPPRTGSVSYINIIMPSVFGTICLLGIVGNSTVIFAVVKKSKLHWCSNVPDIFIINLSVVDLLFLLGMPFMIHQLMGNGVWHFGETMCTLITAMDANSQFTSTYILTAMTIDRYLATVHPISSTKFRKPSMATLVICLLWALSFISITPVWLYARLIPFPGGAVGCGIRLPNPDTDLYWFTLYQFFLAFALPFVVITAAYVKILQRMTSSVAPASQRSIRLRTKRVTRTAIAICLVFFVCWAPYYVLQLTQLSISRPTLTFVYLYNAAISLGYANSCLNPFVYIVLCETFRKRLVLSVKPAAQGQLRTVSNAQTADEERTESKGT
method.notes: Radioligand binding assay at cloned rat MCH1 receptor ([3H] Compound A)
Parameters: host or cells: Peak rapid 293 (Peakr293) cells, transient calcium phosphate transfection, membranes
conditions.used: cloned rat MCH1 receptor; 0.08 nM [3H] Compound A; Peakr293 cell membranes; read-out: Ki (nM) rMCH1
quantity.measured: Ki (nM)

# compound, numeric.result
measured = [
    ("COc1ccc2[nH]cc(CN3CCC(c4cccc(NC(=O)C(C)C)c4)CC3)c2c1", 623),
    ("CCc1ccc(-c2ccc3c(CN4CCC(c5cccc(NC(=O)C(C)C)c5)CC4)c[nH]c3c2)cc1", 54.8),
    ("CC(C)C(=O)Nc1cccc(C2CCN(CCCCC(=O)N3C(=O)OC[C@@H]3c3ccc(F)c(F)c3)CC2)c1", 193),
    ("Cc1ccc2[nH]c(-c3ccccc3I)c(CCCN3CCC(c4cccc(NC(=O)C(C)C)c4)CC3)c2c1", 21.6),
]

I. Cc1ccc2[nH]c(-c3ccc(Br)cc3)c(CCCN3CCC(c4cccc(NC(=O)C(C)C)c4)CC3)c2c1
II. CC(C)C(=O)Nc1cccc(C2CCN(CCCCC(=O)c3ccccc3C(F)(F)F)CC2)c1
input: Compare Ki: is it lower for I or for II ? # respond with the chosen item's label
output: I
(I: 14.6 nM, II: 73.4 nM)

I. COc1ccc(C(=O)NCCCCN2CCC(c3cccc(NC(=O)C(C)C)c3)CC2)cc1OC
II. CCn1c(-c2ccc(Cl)cc2)c(CN2CCC(c3cccc(NC(=O)C(C)C)c3)CC2)c2ccccc21
input: Compare Ki: is it lower for I or for II ? # respond with the chosen item's label
output: I
(I: 97.9 nM, II: 214 nM)

P. CC(C)C(=O)Nc1cccc(C2CCN(CCCCC(=O)c3ccc(Cl)cc3)CC2)c1
Q. CC(C)C(=O)Nc1cccc(C2CCN(CCCCC(Oc3ccc(F)cc3)c3ccc(F)cc3)CC2)c1 (stereo not shown)
input: Compare Ki: is it lower for P or for Q ? # respond with the chosen item's label
output: Q

A. CC(C)C(=O)Nc1cccc(C2CCN(CCCc3c(-c4ccccc4I)[nH]c4c3ccc3ccccc34)CC2)c1
B. COc1cccc(-n2ccc3c(CN4CCC(c5cccc(NC(=O)C(C)C)c5)CC4)cccc32)c1
input: Which shows the larger Ki value: A or B ? # respond with the chosen item's label
output: B
(B: 123 nM, A: 12.7 nM)

1. CCC(=O)Nc1cccc(C2CCN(CCCCC(=O)c3ccc([N+](=O)[O-])cc3)CC2)c1
2. CC(C)C(=O)Nc1cccc(C2CCN(CCCCCCNC(=O)Nc3ccc(Cl)cc3Cl)CC2)c1
input: Which shows the larger Ki value: 1 or 2 ? # respond with the chosen item's label
output: 2

----------
assayed.target: rat MCH-1 (Rattus norvegicus, UniProt P97639)
method.notes: Radioligand binding assay at cloned rat MCH1 receptor ([3H] Compound A)
Set-up: host or cells: Peak rapid 293 (Peakr293) cells, transient calcium phosphate transfection, membranes
conditions.used: cloned rat MCH1 receptor, membranes from Peakr293 cells, 0.08 nM [3H] Compound A; read-out: Ki (nM) rMCH1
quantity.measured: Ki (nM)

1. CC(C)C(=O)Nc1cccc(C2CCN(C[C@@H](C)COc3cccc(Cl)c3)CC2)c1
2. CC(C)C(=O)Nc1cccc(C2CCN(CCC(Oc3ccc(Oc4ccccc4)cc3)c3ccc(Br)cc3)CC2)c1 (stereo not shown)
3. CC(C)C(=O)Nc1cccc(C2CCN(Cc3cccc(Oc4cccc(C(F)(F)F)c4)c3)CC2)c1
4. CC(=O)c1cccc(O[C@@H](CCN2CCC(c3cc(NC(=O)C(C)C)ccc3C)CC2)c2ccccc2)c1
input: Arrange by Ki, high to low. Provide your answer as the labels ordered per the instruction.
output: 1, 2, 3, 4
(1: 428 nM, 2: 149 nM, 3: 64.8 nM, 4: 15.6 nM)

These entries and their values trace back to patent US6727264B1.
